Origin of values: ChEMBL document CHEMBL1156410

Items are presented alongside their recorded logP.
Assay: Octanol-water partition coefficient, log P in 0.1 N aqueous HCl
Assay type: physicochemical
Please state the value as a number alone, without comment.

CC(=O)O[C@@]12CO[C@@H]1C[C@H](OC(=O)CN1CCN(c3ccccn3)CC1)[C@@]1(C)C(=O)[C@H](O)C3=C(C)[C@@H](OC(=O)[C@H](O)[C@@H](NC(=O)c4ccccc4)c4ccccc4)C[C@@](O)([C@@H](OC(=O)c4ccccc4)[C@H]21)C3(C)C : 0.155

Now, please, on to the next compound.
The compound listed as CC(=O)O[C@H]1C(=O)[C@@]2(C)[C@H]([C@H](OC(=O)c3ccccc3)[C@]3(O)C[C@H](OC(=O)[C@H](O)[C@@H](NC(=O)c4ccccc4)c4ccccc4)C(C)=C1C3(C)C)[C@]1(OC(C)=O)CO[C@@H]1C[C@@H]2O [PACLITAXEL] shows logP equal to 0.017

* * *

Test: Induction of tubulin polymerization at 1 uM by DAPI fluorescence method relative to control
Activity: recorded values
All answers are understood in %, so give the number only.

Recorded results for 5 compounds are shown here.
CC(=O)O[C@@]12CO[C@@H]1C[C@H](OC(=O)CCl)[C@@]1(C)C(=O)[C@H](OC(=O)OCc3ccccc3)C3=C(C)[C@@H](OC(=O)[C@H](O)[C@@H](NC(=O)c4ccccc4)c4ccccc4)C[C@@](O)([C@@H](OC(=O)c4ccccc4)[C@H]21)C3(C)C : 20
CC(=O)O[C@@]12CO[C@@H]1C[C@H](O)[C@@]1(C)C(=O)[C@H](OC(=O)OCc3ccccc3)C3=C(C)[C@@H](OC(=O)[C@H](O)[C@@H](NC(=O)c4ccccc4)c4ccccc4)C[C@@](O)([C@@H](OC(=O)c4ccccc4)[C@H]21)C3(C)C : 83
CC(=O)O[C@@]12CO[C@@H]1C[C@H](OC(=O)C1CC1)[C@@]1(C)C(=O)[C@H](OC(=O)OCc3ccccc3)C3=C(C)[C@@H](OC(=O)[C@H](O)[C@@H](NC(=O)c4ccccc4)c4ccccc4)C[C@@](O)([C@@H](OC(=O)c4ccccc4)[C@H]21)C3(C)C : 26
CCC(=O)O[C@H]1C(=O)[C@]2(C)[C@@H](OC(C)=O)C[C@H]3OC[C@@]3(OC(C)=O)[C@H]2[C@H](OC(=O)c2ccccc2)[C@]2(O)C[C@H](OC(=O)[C@H](O)[C@@H](NC(=O)c3ccccc3)c3ccccc3)C(C)=C1C2(C)C : 44
CCCC(=O)O[C@H]1C[C@H]2OC[C@@]2(OC(C)=O)[C@H]2[C@H](OC(=O)c3ccccc3)[C@]3(O)C[C@H](OC(=O)[C@H](O)[C@@H](NC(=O)c4ccccc4)c4ccccc4)C(C)=C([C@@H](OC(=O)CC)C(=O)[C@]12C)C3(C)C : 52

Attention now shifts to the item below.
The compound CC(=O)O[C@H]1C(=O)[C@@]2(C)[C@H]([C@H](OC(=O)c3ccccc3)[C@]3(O)C[C@H](OC(=O)[C@H](O)[C@@H](NC(=O)c4ccccc4)c4ccccc4)C(C)=C1C3(C)C)[C@]1(OC(C)=O)CO[C@@H]1C[C@@H]2O [PACLITAXEL] showed Activity equal to 66

* * *

Catalogue of compounds with associated Activity
Experiment: Induction of tubulin polymerization at 10 uM by DAPI fluorescence method relative to control
// note: answer is a bare numeric in %

Examples from the recorded data:
CCC(=O)O[C@H]1C(=O)[C@]2(C)[C@@H](OC(=O)C3CC3)C[C@H]3OC[C@@]3(OC(C)=O)[C@H]2[C@H](OC(=O)c2ccccc2)[C@]2(O)C[C@H](OC(=O)[C@H](O)[C@@H](NC(=O)c3ccccc3)c3ccccc3)C(C)=C1C2(C)C : 113
CCC(=O)O[C@H]1C(=O)[C@]2(C)[C@@H](OC(=O)C=C(C)C)C[C@H]3OC[C@@]3(OC(C)=O)[C@H]2[C@H](OC(=O)c2ccccc2)[C@]2(O)C[C@H](OC(=O)[C@H](O)[C@@H](NC(=O)c3ccccc3)c3ccccc3)C(C)=C1C2(C)C : 120
CC(=O)O[C@@]12CO[C@@H]1C[C@H](OC(=O)C=C(C)C)[C@@]1(C)C(=O)[C@H](OC(=O)OCc3ccccc3)C3=C(C)[C@@H](OC(=O)[C@H](O)[C@@H](NC(=O)c4ccccc4)c4ccccc4)C[C@@](O)([C@@H](OC(=O)c4ccccc4)[C@H]21)C3(C)C : 43
C/C=C/C(=O)O[C@H]1C(=O)[C@]2(C)[C@@H](OC(=O)C3CC3)C[C@H]3OC[C@@]3(OC(C)=O)[C@H]2[C@H](OC(=O)c2ccccc2)[C@]2(O)C[C@H](OC(=O)[C@H](O)[C@@H](NC(=O)c3ccccc3)c3ccccc3)C(C)=C1C2(C)C : 109
CC(=O)O[C@@]12CO[C@@H]1C[C@H](OC(=O)CCl)[C@@]1(C)C(=O)[C@H](OC(=O)c3ccccc3)C3=C(C)[C@@H](OC(=O)[C@H](O)[C@@H](NC(=O)c4ccccc4)c4ccccc4)C[C@@](O)([C@@H](OC(=O)c4ccccc4)[C@H]21)C3(C)C : 92

Looking up "CC(=O)O[C@@]12CO[C@@H]1C[C@H](O)[C@@]1(C)C(=O)[C@H](OC(=O)c3ccccc3)C3=C(C)[C@@H](OC(=O)[C@H](O)[C@@H](NC(=O)c4ccccc4)c4ccccc4)C[C@@](O)([C@@H](OC(=O)c4ccccc4)[C@H]21)C3(C)C" , I see its Activity listed as 113

Kindly note the recorded Activity for CC(=O)O[C@H]1C(=O)[C@@]2(C)[C@H]([C@H](OC(=O)c3ccccc3)[C@]3(O)C[C@H](OC(=O)[C@H](O)[C@@H](NC(=O)c4ccccc4)c4ccccc4)C(C)=C1C3(C)C)[C@]1(OC(C)=O)CO[C@@H]1C[C@@H]2O [PACLITAXEL] , which is 100

// field: Activity; key: "CC(=O)O[C@@]12CO[C@@H]1C[C@H](OC(=O)c1ccccc1)[C@@]1(C)C(=O)[C@H](OC(=O)OCc3ccccc3)C3=C(C)[C@@H](OC(=O)[C@H](O)[C@@H](NC(=O)c4ccccc4)c4ccccc4)C[C@@](O)([C@@H](OC(=O)c4ccccc4)[C@H]21)C3(C)C" ; value = 33
